testedTarget: Recombinant Human (rh) DPP1 (Homo sapiens)
procedureDetails: Fluorescence Assay for Recombinant Human (rh) DPP1
Assay type: biochemical
protocolConditions: rhDPP1; substrate H-Gly-Arg-AMC; pH5.0; 30 min pre-incubation, 60 min reaction at 22° C.; highest concentration 10 μM; read-out: DPP1 activity, pIC50 (converted)
Structures can show the parent of a compound that is named as a salt.
observationType: IC50 (nM)

a: CN(C)S(=O)(=O)c1ccc(-c2ccc(C[C@@H](C#N)NC(=O)[C@@H]3CCCCN3)cc2)cc1 [Example 20, trifluoroacetate]
b: N#C[C@H](Cc1ccc(-c2ccc3sc(=O)n(CCO)c3c2)cc1)NC(=O)[C@@H]1CCCCN1
c: N#C[C@H](Cc1ccc(-c2cccc(CO)c2)cc1)NC(=O)[C@@H]1CCCCN1 [Example 45, trifluoroacetate]
d: CCS(=O)(=O)c1cc(-c2ccc(C[C@@H](C#N)NC(=O)[C@@H]3CCCCN3)cc2)ccc1C#N
Ask | Kindly provide a descending ordering of the above compounds based on their IC50. Write the labels out in the order the request specifies.
Reply | c, a, d, b

====

testedTarget: Recombinant Human (rh) DPP1 (Homo sapiens, UniProt P53634)
Sequence (P53634 25-463): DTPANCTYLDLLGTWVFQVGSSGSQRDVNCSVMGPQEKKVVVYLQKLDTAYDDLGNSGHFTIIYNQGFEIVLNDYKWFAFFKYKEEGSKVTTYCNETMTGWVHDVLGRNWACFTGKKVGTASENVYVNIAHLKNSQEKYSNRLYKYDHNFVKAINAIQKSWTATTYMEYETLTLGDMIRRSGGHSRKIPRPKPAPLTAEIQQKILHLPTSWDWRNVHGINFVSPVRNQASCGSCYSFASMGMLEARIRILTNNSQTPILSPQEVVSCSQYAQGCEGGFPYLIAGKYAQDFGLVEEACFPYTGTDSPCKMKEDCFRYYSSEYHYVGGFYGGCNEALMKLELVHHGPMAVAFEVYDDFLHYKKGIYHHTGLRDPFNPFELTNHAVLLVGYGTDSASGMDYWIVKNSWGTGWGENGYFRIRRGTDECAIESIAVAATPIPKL
procedureDetails: Fluorescence Assay for Recombinant Human (rh) DPP1
Assay type: biochemical
protocolConditions: rhDPP1; substrate H-Gly-Arg-AMC; pH5.0; 30 min pre-incubation, 60 min reaction at 22° C.; highest concentration 10 μM; read-out: DPP1 activity, pIC50 (converted)
Structures can show the parent of a compound that is named as a salt.
observationType: IC50 (nM)

Worked cases, IC50 given:
CS(=O)(=O)NCc1cccc(-c2ccc(C[C@@H](C#N)NC(=O)[C@@H]3CCCCN3)cc2)c1 [Example 89, Trifluoroacetate]	63.1
N#C[C@H](Cc1ccc(-c2cccnc2)cc1)NC(=O)[C@@H]1CCCCN1 [Example 10, Trifluoroacetate]	251
N#C[C@H](Cc1ccc(-c2cccc(S(=O)(=O)N3CCCC3)c2)cc1)NC(=O)[C@@H]1CCCCN1 [Example 88, Trifluoroacetate]	63.1
Cc1cscc1-c1ccc(C[C@@H](C#N)NC(=O)[C@@H]2CCCCN2)cc1 [Example 38, trifluoroacetate]	316

a: N#C[C@H](Cc1ccc(-c2ccc(C(N)=O)cc2)cc1)NC(=O)[C@@H]1CCCCN1 [Example 5, Trifluoroacetate]
b: Cn1nccc1-c1ccc(C[C@@H](C#N)NC(=O)[C@@H]2CCCCN2)cc1 [Example 41, trifluoroacetate]
Ask | Would you let me know which has the greater IC50 value, a or b ? Your answer should be the label attached to the chosen record.
Reply | b
(b: 398 nM, a: 63.1 nM)

I: N#C[C@H](Cc1ccc(-c2ccc3c(c2)sc(=O)n3CCO)cc1)NC(=O)[C@@H]1CCCCN1
II: N#C[C@H](Cc1ccc(-c2ccc(F)cc2OCc2ccccc2)cc1)NC(=O)[C@@H]1CCCCN1
III: N#C[C@H](Cc1ccc(-c2ccc(OC(F)(F)F)cc2)cc1)NC(=O)[C@@H]1CCCCN1
IV: COc1c(F)cc(F)cc1-c1ccc(C[C@@H](C#N)NC(=O)[C@@H]2CCCCN2)cc1
Ask | Ascending by IC50, please: list the molecules accordingly. # list labels per requested ordering
Reply | III, I, II, IV

====

testedTarget: Recombinant Human (rh) DPP1 (Homo sapiens, UniProt P53634)
procedureDetails: Fluorescence Assay for Recombinant Human (rh) DPP1
Type: biochemical
protocolConditions: rhDPP1; substrate H-Gly-Arg-AMC; pH5.0; 30 min pre-incubation, 60 min reaction at 22° C.; highest concentration 10 μM; read-out: DPP1 activity, pIC50 (converted)
Counter-ions that a name gives are not always drawn.
observationType: IC50 (nM)

Some compounds with recorded IC50:
CCCS(=O)(=O)c1cc(-c2ccc(C[C@@H](C#N)NC(=O)[C@@H]3CCCCN3)cc2)ccc1C#N [Example 60]	20
N#C[C@@]1(NC(=O)[C@@H]2CCCCN2)C[C@@H]1c1ccc(-c2ccc(S(=O)(=O)N3CCC3)cc2)cc1 [Example 104, Trifluoroacetate]	79.4
Cn1c(=O)oc2ccc(-c3ccc(C[C@@H](C#N)NC(=O)[C@@H]4CCCCN4)cc3)cc21 [Example 96]	7.94
N#C[C@H](Cc1ccc(-c2ccc3c(c2)OCO3)cc1)NC(=O)[C@@H]1CCCCN1 [Example 28, trifluoroacetate]	100
COc1ccc(-c2ccc(C[C@@H](C#N)NC(=O)[C@@H]3CCCCN3)cc2)cc1OC [Example 32, trifluoroacetate]	158
CN1CCN(C(=O)c2ccc(-c3ccc(C[C@@H](C#N)NC(=O)[C@@H]4CCCCN4)cc3)cc2)CC1 [Example 76, Trifluoroacetate]	158

P: N#C[C@H](Cc1ccc(-c2ccccc2)cc1)NC(=O)[C@@H]1CCCN1 [Example 3]
Q: N#Cc1cccc(-c2ccc(C[C@@H](C#N)NC(=O)[C@@H]3CCCCN3)cn2)c1 [Example 78, Trifluoroacetate]
R: N#Cc1cccc(-c2ccc(C[C@@H](C#N)NC(=O)[C@@H]3CCN3)cc2)c1 [Example 19]
Ask | Ordering: ascending IC50. Submit the labels in the order that the ranking request calls for.
Reply | Q, R, P
